Tested on: H460 cell line
Assay explanation: cells
Assay type: cell-based
Test conditions: Table S11; MTT; read-out: IC50 Value of chemotherapeutics, H460
Measurement name: pIC50
Please report pIC50 as the negative decimal logarithm of the molar concentration, giving only the number.

Looking up N.N.[Cl][Pt][Cl] [Cisplatin, cisplatin, reference compound] , I see its pIC50 listed as 3.69

* * *

Tested on: HEK-293 normal cell line
Assay explanation: cells
Format: cell-based
Test conditions: Table S11; MTT; read-out: IC50 Value of chemotherapeutics, HEK-293
Measurement name: pIC50
Please report pIC50 as the negative decimal logarithm of the molar concentration, giving only the number.

Looking up N.N.[Cl][Pt][Cl] [Cisplatin, cisplatin, reference compound] , I see its pIC50 listed as 3.79

* * *

Assay explanation: 50% human serum (from human male AB plasma, US origin; centrifuged to remove the lipid content)
Test conditions: 37 °C, up to 24 h
Measurement name: cleaved bond

FFPKIFDDLE(PIP)SILPKIL-NH2 : Phe1-F
FFPKIFDDLE(PIP)SILPKILGPLGLAG-(PEG4)4-NH2 : Phe1-F
AKFFPKIFDDLE(PIP)SILPKIL-NH2 : Ala-K
AEFFPKIFDDLE(PIP)SILPKIL-NH2 : Ala-E

Hey, just so you know, these numbers are from paper PMC12677599.
